Assay name: cytotoxicity assay in HNOF cells
Format: cell-based
Measurement conditions: human, HNOF cells
pIC50: −log10 of the molar value.
Entry flag: Criterion met if pIC50 reaches 4; Criterion not met if it does not.

Worked cases, answers included:
{"columns": ["Compound", "Assigned class"],
 "data": [
  ["O=C1c2ccccc2C(=O)N1CCc1csc(-c2nc(CCN3C(=O)c4ccccc4C3=O)cs2)n1 [12W-0290]", "Criterion not met"],
  ["O=C(Nc1nc(CCN2C(=O)c3ccccc3C2=O)cs1)c1cc2ccccc2s1 [SW2]", "Criterion met"]
]}

Req: Determine whether this compound has pIC50 no lower than 4: O=C1c2ccccc2C(=O)N1CCc1csc(-c2ccc(F)cc2)n1 [12W-0272]
Resp: Criterion not met

* * *

System: lung cancer cells (Bm7brmx2-1st)
Assay name: cytotoxicity assay in Bm7brmx2-1st cells
Assay type: cell-based
Listed below: pIC50 values for each entry.
Just the number, please; pIC50 means minus log10 of the concentration in mol/L.

{"columns": ["Molecule", "Meas value"],
 "data": [
  ["Cc1ccc(-c2nc(CCN3C(=O)c4ccccc4C3=O)cs2)cc1 [12W-0274]", 4.09],
  ["O=C1c2ccccc2C(=O)N1CCc1csc(-c2nc(CCN3C(=O)c4ccccc4C3=O)cs2)n1 [12W-0290]", 4.07],
  ["O=C1c2ccccc2C(=O)N1CCc1csc(-c2ccccn2)n1 [12W-0266]", 4.05]
]}

Req: # get_value(readout= pIC50, system= lung cancer cells (Bm7brmx2-1st)) for O=C1c2ccccc2C(=O)N1CCc1csc(-c2ccc(F)cc2)n1 [12W-0272]
Resp: 3.89

* * *

Assay name: cytotoxicity assay in HNOF cells
Type: cell-based
Measurement conditions: human, HNOF cells
Listed below: IC50 values for each entry.

# example entries with known answers
{"columns": ["Compound smiles", "Meas value"],
 "data": [
  ["O=C(Nc1nc(CCN2C(=O)c3ccccc3C2=O)cs1)c1ccc([N+](=O)[O-])cc1", "78.3 µM"],
  ["CSc1ccc(/C=C(/C#N)c2nc(CCN3C(=O)c4ccccc4C3=O)cs2)cc1", "96.2 µM"]
]}

// next item, IC50 requested
Req: Please give the measured IC50 for this molecule: O=C1c2ccccc2C(=O)N1CCc1csc(Nc2nc(CCN3C(=O)c4ccccc4C3=O)cs2)n1
Resp: 97.8 µM
